TEST: Metabolism of the compounds to the active component (compound [formula (II)]) in liver cells
CONDITION SET: human liver cells S9, 1 mM NADPH, 37° C., 2 hours; metabolized to the compound [formula (II)]
MEASURE: Metabolic rate (%)

> print(dat)
                                   compound             measure  unit.symbol  result.number
1  Cc1nc2n(c(=O)c1CCN1CCC(c3noc4cc(F)ccc34)CC1)CCCC2OC(=O)c1ccccc1 (stereo not shown)  Metabolic rate (%)            %             89
2  Cc1nc2n(c(=O)c1CCN1CCC(c3noc4cc(F)ccc34)CC1)CCCC2OC(=O)Oc1ccc([N+](=O)[O-])cc1.Cl (stereo not shown)  Metabolic rate (%)            %             89
3  CCCCCOC(=O)OC1CCCn2c1nc(C)c(CCN1CCC(c3noc4cc(F)ccc34)CC1)c2=O.Cl.Cl (stereo not shown)  Metabolic rate (%)            %             93
4  Cc1nc2n(c(=O)c1CCN1CCC(c3noc4cc(F)ccc34)CC1)CCCC2OC(=O)Oc1ccccc1.Cl (stereo not shown)  Metabolic rate (%)            %             94
5  Cc1nc2n(c(=O)c1CCN1CCC(c3noc4cc(F)ccc34)CC1)CCCC2OC(=O)OCC(C)C.Cl.Cl (stereo not shown)  Metabolic rate (%)            %             92
6  CCOC(=O)OC1CCCn2c1nc(C)c(CCN1CCC(c3noc4cc(F)ccc34)CC1)c2=O.Cl (stereo not shown)  Metabolic rate (%)            %             95
7  Cc1ccc(C(=O)OC2CCCn3c2nc(C)c(CCN2CCC(c4noc5cc(F)ccc45)CC2)c3=O)cc1 (stereo not shown)  Metabolic rate (%)            %             78
